Below, each of the compounds is paired with its reported pest or weed control at 250 g/ha value.
Tested on: Alopecurus myosuroides (ALOMY)
Assay: Post-emergence herbicidal activity, glasshouse pot test
Format: in vivo
Settings: Alopecurus myosuroides, 312 h, rate 250 g/ha, evaluated after 13 days, glasshouse, read-out: Post-emergence activity ALOMY (100=total damage to plant; 0=no damage to plant)
READOUT_KIND: pest or weed control at 250 g/ha

>>> value("CCc1ccc(Oc2ncc(C(F)(F)F)cc2Cl)cc1C1=C(O)CC(C)(C)CC1=O")
"90%"
>>> value("CCc1ccc(Oc2ccc(Br)c(Cl)c2)cc1C1=C(O)C(C)(C)OC(C)(C)C1=O")
"100%"
>>> value("CCc1ccc(Oc2ccc(C(F)(F)F)cn2)cc1C1=C(O)[C@H]2CC[C@H](C2)C1=O")
"90%"
>>> value("CCc1ccc(Oc2ncc(C(F)(F)F)cc2C(F)(F)F)cc1C1=C(O)[C@@H]2CC[C@](C)(C1=O)C2(C)C")
"100%"
>>> value("CCc1ccc(Oc2ccc(C(F)(F)F)cc2[N+](=O)[O-])cc1C1=C(O)[C@H]2CC[C@H](C2)C1=O")
"60%"
>>> value("CCc1ccc(Oc2ccc(C(F)(F)F)cc2Cl)cc1C1=C(O)CC2(CCOCC2)CC1=O")
"90%"
>>> value("CCc1ccc(Oc2ncc(Cl)cc2F)cc1C1=C(O)CC(C)(C)CC1=O")
"100%"

All values here come from patent US8865623B2.
